- Test system: T-47D breast
- assay_explanation: NCI tumour cell line growth inhibition, 48 h
This section presents molecules with their documented TGI values.

Past entries and their recorded results:
COc1cnc2c(c1)C(=O)c1c-2n(CCCN2CCCC2)c(=O)c2cc(Cl)ccc12    18.9 µM
Nc1ccc(S(=O)(=O)c2ccc(NC(=O)c3cccnc3)cc2)cc1    > 100 µM
Cc1ccc2c(c1)ncn2-c1ncnc2c1CC(C)c1ccccc1N2C (stereo unspecified)    8.53 µM

// query Form field - read-out: TGI; system: T-47D breast; submitted item: CN(N)/N=N/c1nc[nH]c1C(N)=O
// result > 100 µM

// query What would you report for C[C@H](CS(C)(=O)=O)Nc1ncc2cc(Oc3ccc(F)cc3F)c(=O)n(C)c2n1 ?
// result > 25 µM

// query What would you report for O=C1C(N=Nc2ccc(-c3nc4ccccc4o3)cc2)NC(=S)N1c1ccccc1 (stereo unspecified) ?
// result > 100 µM
